TARGET_DESC: Recombinant HCV polymerase (Hepatitis C virus genotype 1b, UniProt P26663)
Construct: 2.5 pmoles (0.15 μg) HCV polymerase protein
Sequence (P26663 2420-3010): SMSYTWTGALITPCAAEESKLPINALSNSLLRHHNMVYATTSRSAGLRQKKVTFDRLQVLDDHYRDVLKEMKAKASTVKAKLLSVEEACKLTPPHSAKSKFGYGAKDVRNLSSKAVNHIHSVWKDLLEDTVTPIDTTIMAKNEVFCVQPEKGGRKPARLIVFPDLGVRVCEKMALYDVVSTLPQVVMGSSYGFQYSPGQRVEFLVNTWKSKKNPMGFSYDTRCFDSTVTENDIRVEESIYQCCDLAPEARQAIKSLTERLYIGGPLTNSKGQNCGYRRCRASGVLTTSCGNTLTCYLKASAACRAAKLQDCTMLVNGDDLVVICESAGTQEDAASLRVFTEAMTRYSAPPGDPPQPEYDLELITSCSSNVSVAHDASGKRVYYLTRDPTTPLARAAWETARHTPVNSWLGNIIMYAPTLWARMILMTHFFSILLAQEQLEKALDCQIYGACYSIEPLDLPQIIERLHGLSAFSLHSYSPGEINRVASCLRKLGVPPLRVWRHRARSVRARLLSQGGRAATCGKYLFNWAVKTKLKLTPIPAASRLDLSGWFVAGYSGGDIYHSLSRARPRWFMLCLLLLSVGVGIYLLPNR
ASSAY_NOTES: HCV Polymerase Inhibition Assay
Format: biochemical
PROTOCOL_CONDITIONS: primer/template-directed transcription, 30 minutes at 30° C.; category symbol

>  <MOLECULE>
Cc1noc(C)c1COc1ccc(CCC2(C3CCCC3)CC(O)=CC(=O)O2)cc1 (stereo not shown)

>  <TARGET_DESC>
Recombinant HCV polymerase (Hepatitis C virus genotype 1b, UniProt P26663)

>  <IC50>
10 to 50 µM

$$$$
>  <MOLECULE>
COc1ccc(Oc2cccc(CCC3(C4CCCC4)CC(O)=CC(=O)O3)c2)cc1 (stereo not shown)

>  <TARGET_DESC>
Recombinant HCV polymerase (Hepatitis C virus genotype 1b, UniProt P26663)

>  <IC50>
10 to 50 µM

$$$$
>  <MOLECULE>
CC(C)(C)c1cc2nc(N)sc2cc1SC1=C(O)CC(C2CCCC2)(C2CCCC2)OC1=O

>  <TARGET_DESC>
Recombinant HCV polymerase (Hepatitis C virus genotype 1b, UniProt P26663)

>  <IC50>
10 to 50 µM

$$$$
>  <MOLECULE>
COc1cc(OC)c(CCC2(C3CCCC3)CC(=O)CC(=O)O2)cc1Cl (stereo not shown)

>  <TARGET_DESC>
Recombinant HCV polymerase (Hepatitis C virus genotype 1b, UniProt P26663)

>  <IC50>
< 1 µM

$$$$

---

TARGET_DESC: Recombinant HCV polymerase (Hepatitis C virus genotype 1b)
Construct: 2.5 pmoles (0.15 μg) HCV polymerase protein
ASSAY_NOTES: HCV Polymerase Inhibition Assay
Format: biochemical
PROTOCOL_CONDITIONS: primer/template-directed transcription, 30 minutes at 30° C.; category symbol
# IC50 per record follows

>  <COMPOUND>
COc1ccc(CCC2(C3CCCC3)CC(O)=C(Sc3nc[nH]n3)C(=O)O2)cc1Cl (stereo not shown)

>  <IC50>
< 1 µM

$$$$
>  <COMPOUND>
COc1ccc(CCC2(C3CCCC3)CC(O)=C(Sc3nc(O)c4cc[nH]c4n3)C(=O)O2)cc1 (stereo not shown)

>  <IC50>
< 1 µM

$$$$
>  <COMPOUND>
COc1ccc(CCC2(C3CCCC3)CC(=O)C(C(=O)Cc3cccnc3)C(=O)O2)c(OC)c1 (stereo not shown)

>  <IC50>
1 to 10 µM

$$$$
>  <COMPOUND>
O=C1CC(=O)OC(CCc2ccc(OCC3CC3)c(F)c2)(C2CCCC2)C1 (stereo not shown)

>  <IC50>
1 to 10 µM

$$$$

---

TARGET_DESC: Recombinant HCV polymerase (Hepatitis C virus genotype 1b, UniProt P26663)
Construct: 2.5 pmoles (0.15 μg) HCV polymerase protein
ASSAY_NOTES: HCV Polymerase Inhibition Assay
Type: biochemical
PROTOCOL_CONDITIONS: primer/template-directed transcription, 30 minutes at 30° C.; category symbol
# IC50 per record follows

>  <MOLECULE>
Cc1cc(SC2=C(O)CC(CCc3ccc(O)cc3)(C3CCCC3)OC2=O)c(C(C)(C)C)cc1OCCO (stereo not drawn)

>  <TARGET_DESC>
Recombinant HCV polymerase (Hepatitis C virus genotype 1b, UniProt P26663)

>  <IC50>
1 to 10 µM

$$$$
>  <MOLECULE>
O=C1CC(=O)OC(CCc2ccc(C3OCCO3)c(F)c2)(C2CCCC2)C1 (stereo not drawn)

>  <TARGET_DESC>
Recombinant HCV polymerase (Hepatitis C virus genotype 1b, UniProt P26663)

>  <IC50>
1 to 10 µM

$$$$
>  <MOLECULE>
O=C1CC(=O)OC(CCc2ccc(OC3CCC3)c(F)c2)(C2CCCC2)C1 (stereo not drawn)

>  <TARGET_DESC>
Recombinant HCV polymerase (Hepatitis C virus genotype 1b, UniProt P26663)

>  <IC50>
1 to 10 µM

$$$$
>  <MOLECULE>
O=C1CC(=O)OC(CCc2ccc(N3CCCC3=O)cc2)(C2CCCC2)C1 (stereo not drawn)

>  <TARGET_DESC>
Recombinant HCV polymerase (Hepatitis C virus genotype 1b, UniProt P26663)

>  <IC50>
1 to 10 µM

$$$$
>  <MOLECULE>
CCOc1ccc(CCC2(C3CCCC3)CC(=O)CC(=O)O2)cc1 (stereo not drawn)

>  <TARGET_DESC>
Recombinant HCV polymerase (Hepatitis C virus genotype 1b, UniProt P26663)

>  <IC50>
1 to 10 µM

$$$$
>  <MOLECULE>
CC(=O)Nc1cc(C(C)(C)C)c(SC2=C(O)CC(CCc3ccc(O)cc3)(C3CCCCC3)OC2=O)cc1C (stereo not drawn)

>  <TARGET_DESC>
Recombinant HCV polymerase (Hepatitis C virus genotype 1b, UniProt P26663)

>  <IC50>
> 50 µM

$$$$
>  <MOLECULE>
CCOc1cccc(CCC2(C3CCCC3)CC(=O)CC(=O)O2)c1 (stereo not drawn)

>  <TARGET_DESC>
Recombinant HCV polymerase (Hepatitis C virus genotype 1b, UniProt P26663)

>  <IC50>
1 to 10 µM

$$$$
>  <MOLECULE>
CC(C)(C)c1cccc(CCC2(C3CCCC3)CC(=O)CC(=O)O2)c1 (stereo not drawn)

>  <TARGET_DESC>
Recombinant HCV polymerase (Hepatitis C virus genotype 1b, UniProt P26663)

>  <IC50>
1 to 10 µM

$$$$
>  <MOLECULE>
CC(C)Oc1ccc(CCC2(C3CCCC3)CC(=O)CC(=O)O2)cc1 (stereo not drawn)

>  <TARGET_DESC>
Recombinant HCV polymerase (Hepatitis C virus genotype 1b, UniProt P26663)

>  <IC50>
1 to 10 µM

$$$$
>  <MOLECULE>
COc1ccc(OCC2(C3CCCC3)CC(=O)CC(=O)O2)cc1 (stereo not drawn)

>  <TARGET_DESC>
Recombinant HCV polymerase (Hepatitis C virus genotype 1b, UniProt P26663)

>  <IC50>
> 50 µM

$$$$
>  <MOLECULE>
COc1ccc(CCC2(C3CCCC3)CC(O)=C(Cl)C(=O)O2)cc1 (stereo not drawn)

>  <TARGET_DESC>
Recombinant HCV polymerase (Hepatitis C virus genotype 1b, UniProt P26663)

>  <IC50>
10 to 50 µM

$$$$
>  <MOLECULE>
O=C1CC(=O)OC(CCc2ccccc2CO)(C2CCCC2)C1 (stereo not drawn)

>  <TARGET_DESC>
Recombinant HCV polymerase (Hepatitis C virus genotype 1b, UniProt P26663)

>  <IC50>
10 to 50 µM

$$$$
>  <MOLECULE>
COc1cc(OC)c(CCC2(C3CCCC3)CC(O)=C(Sc3nc[nH]n3)C(=O)O2)cc1Cl (stereo not drawn)

>  <TARGET_DESC>
Recombinant HCV polymerase (Hepatitis C virus genotype 1b, UniProt P26663)

>  <IC50>
< 1 µM

$$$$
>  <MOLECULE>
CC(=O)c1ccc(CCC2(C3CCCC3)CC(O)=CC(=O)O2)cc1C (stereo not drawn)

>  <TARGET_DESC>
Recombinant HCV polymerase (Hepatitis C virus genotype 1b, UniProt P26663)

>  <IC50>
1 to 10 µM

$$$$
>  <MOLECULE>
Cc1cc(SC2=C(O)CC(CCc3ccc(O)cc3)(C3CCCC3)OC2=O)c(C(C)(C)C)cc1N (stereo not drawn)

>  <TARGET_DESC>
Recombinant HCV polymerase (Hepatitis C virus genotype 1b, UniProt P26663)

>  <IC50>
< 1 µM

$$$$
>  <MOLECULE>
CCOC(=O)c1c[nH]c(SC2=C(O)CC(CCc3ccc(OC)cc3)(C3CCCC3)OC2=O)n1 (stereo not drawn)

>  <TARGET_DESC>
Recombinant HCV polymerase (Hepatitis C virus genotype 1b, UniProt P26663)

>  <IC50>
1 to 10 µM

$$$$
>  <MOLECULE>
COc1ccc(CCC2(C3CCCC3)CC(=O)CC(=O)O2)cc1Cl (stereo not drawn)

>  <TARGET_DESC>
Recombinant HCV polymerase (Hepatitis C virus genotype 1b, UniProt P26663)

>  <IC50>
1 to 10 µM

$$$$
>  <MOLECULE>
Cn1cccc(CCC2(C3CCCC3)CC(=O)CC(=O)O2)c1=O (stereo not drawn)

>  <TARGET_DESC>
Recombinant HCV polymerase (Hepatitis C virus genotype 1b, UniProt P26663)

>  <IC50>
> 50 µM

$$$$

---

# IC50 per record follows
TARGET_DESC: Recombinant HCV polymerase (Hepatitis C virus genotype 1b)
Construct: 2.5 pmoles (0.15 μg) HCV polymerase protein
ASSAY_NOTES: HCV Polymerase Inhibition Assay
Type: biochemical
PROTOCOL_CONDITIONS: primer/template-directed transcription, 30 minutes at 30° C.; category symbol

>  <MOLECULE>
O=C1C=C(O)CC(CC2CCc3ccccc32)(C2CCCC2)O1 (mixture of isomers)

>  <TARGET_DESC>
Recombinant HCV polymerase (Hepatitis C virus genotype 1b)

>  <IC50>
> 50 µM

$$$$
>  <MOLECULE>
Cn1c(COc2ccc(CCC3(C4CCCC4)CC(O)=CC(=O)O3)cc2)nc2ccccc21 (stereo not shown)

>  <TARGET_DESC>
Recombinant HCV polymerase (Hepatitis C virus genotype 1b)

>  <IC50>
10 to 50 µM

$$$$
>  <MOLECULE>
Cc1ccc(S(=O)(=O)Oc2cc(C(C)(C)C)c(SC3=C(O)CC(CCc4ccc(O)cc4)(C4CCCCC4)OC3=O)cc2C)cc1 (stereo not shown)

>  <TARGET_DESC>
Recombinant HCV polymerase (Hepatitis C virus genotype 1b)

>  <IC50>
10 to 50 µM

$$$$
>  <MOLECULE>
COc1ccc(CCC2(C3CCCC3)CC(=O)C(C(=O)Cc3cccnc3)C(=O)O2)cc1 (stereo not shown)

>  <TARGET_DESC>
Recombinant HCV polymerase (Hepatitis C virus genotype 1b)

>  <IC50>
1 to 10 µM

$$$$
